- Experiment description: Octanol-water partition coefficient, log P of the compound
- Assay type: physicochemical
Value type: logP
Output: the number by itself.

So what does the record say about logP for `COc1cc([C@@H]2c3cc4c(cc3C[C@H]3COC(=O)[C@@H]32)OCO4)cc(OC)c1OC(=O)N[C@H](C(=O)NC1CCCC1)C(C)C` ?
2.57

Report logP for `CC[C@H](C)[C@H](NC(=O)Oc1c(OC)cc([C@@H]2c3cc4c(cc3C[C@H]3COC(=O)[C@@H]32)OCO4)cc1OC)C(N)=O` please.
1.36

Query (compound): `COc1cc([C@@H]2c3cc4c(cc3C[C@H]3COC(=O)[C@@H]32)OCO4)cc(OC)c1OC(=O)N[C@@H](CC(C)C)C(N)=O` ; field requested: logP
1.26

# lookup: logP of `COc1cc([C@@H]2c3cc4c(cc3C[C@H]3COC(=O)[C@@H]32)OCO4)cc(OC)c1OC(=O)N[C@H](C(N)=O)C(C)C`
0.84

Requested read-out: logP. Entry: `COc1cc([C@@H]2c3cc4c(cc3C[C@H]3COC(=O)[C@@H]32)OCO4)cc(OC)c1OC(=O)N[C@H](CCSC)C(N)=O`
0.26

Look at this compound and give its reported logP. `COc1cc([C@@H]2c3cc4c(cc3C[C@H]3COC(=O)[C@@H]32)OCO4)cc(OC)c1OC`
3.16

Look up logP: `COc1cc([C@@H]2c3cc4c(cc3C[C@H]3COC(=O)[C@@H]32)OCO4)cc(OC)c1OC(=O)N[C@@H](Cc1ccccc1)C(N)=O`
1.35

Consider the compound `COc1cc([C@@H]2c3cc4c(cc3C[C@H]3COC(=O)[C@@H]32)OCO4)cc(OC)c1OC(=O)N[C@@H](Cc1ccccc1)C(=O)NC1CCCC1` and give its measured logP.
2.06

Can you look up the measured logP of `COc1cc([C@@H]2c3cc4c(cc3C[C@H]3COC(=O)[C@@H]32)OCO4)cc(OC)c1O` for me?
2.92

Using the record for `COc1cc([C@@H]2c3cc4c(cc3C[C@H]3COC(=O)[C@@H]32)OCO4)cc(OC)c1OC(=O)N[C@@H](Cc1ccccc1)C(=O)NC1CC1` , report its logP.
1.95

I have this compound here, `COc1cc([C@@H]2c3cc4c(cc3C[C@H]3COC(=O)[C@@H]32)OCO4)cc(OC)c1OC(=O)N[C@@H](CCSC)C(N)=O` , and I need its recorded logP.
0.28

Entry `COc1cc([C@@H]2c3cc4c(cc3C[C@H]3COC(=O)[C@@H]32)OCO4)cc(OC)c1OC(=O)N[C@H](Cc1ccccc1)C(N)=O` has what logP?
1.33

Quick check: logP of `COc1cc([C@@H]2c3cc4c(cc3C[C@H]3COC(=O)[C@@H]32)OCO4)cc(OC)c1OC(=O)N[C@H](C(=O)NC1CC1)C(C)C` ?
1.45

Which logP is reported for this compound? COc1cc([C@@H]2c3cc4c(cc3[C@@H](O[C@@H]3O[C@@H]5CO[C@@H](C)O[C@H]5[C@H](O)[C@H]3O)[C@H]3COC(=O)[C@H]23)OCO4)cc(OC)c1O [ETOPOSIDE]
0.69

I would be grateful if you could share the reported logP for `COc1cc([C@@H]2c3cc4c(cc3C[C@H]3COC(=O)[C@@H]32)OCO4)cc(OC)c1OC(=O)N[C@@H](C)C(N)=O` .
-0.09
